Origin of the recorded values: ChEMBL document CHEMBL1149379

// endpoint pKi / system 5-hydroxytryptamine receptor 2B (Homo sapiens, UniProt P41595)
Lab note: report pKi as minus log10 of the concentration in molar units, number only.

Sample answers from the record:
C[C@H](N)Cn1ccc2ccc3cccnc3c21 ... 6.94
C[C@H](N)Cn1ccc2ccc3cnccc3c21 ... 6.11
C[C@@H](Cn1ccc2ccc3ncccc3c21)NCc1ccccc1Cl ... 6.42
C[C@H](N)Cn1ccc2ccc3ccncc3c21 ... 6.68
C[C@@H](Cn1ccc2ccc3ncccc3c21)NCc1ccc2c(c1)OCO2 ... 6.86
COc1ccccc1CN[C@@H](C)Cn1ccc2ccc3ncccc3c21 ... 6.05

// below: pKi requested for another compound
5-hydroxytryptamine receptor 2B (Homo sapiens, UniProt P41595) pKi of C[C@@H](Cn1ccc2ccc3ncccc3c21)NCc1ccccc1 is 6.29

----------
- SYSTEM_TESTED: 5-hydroxytryptamine receptor 2B (Homo sapiens, UniProt P41595)
- Sequence (P41595 whole entry): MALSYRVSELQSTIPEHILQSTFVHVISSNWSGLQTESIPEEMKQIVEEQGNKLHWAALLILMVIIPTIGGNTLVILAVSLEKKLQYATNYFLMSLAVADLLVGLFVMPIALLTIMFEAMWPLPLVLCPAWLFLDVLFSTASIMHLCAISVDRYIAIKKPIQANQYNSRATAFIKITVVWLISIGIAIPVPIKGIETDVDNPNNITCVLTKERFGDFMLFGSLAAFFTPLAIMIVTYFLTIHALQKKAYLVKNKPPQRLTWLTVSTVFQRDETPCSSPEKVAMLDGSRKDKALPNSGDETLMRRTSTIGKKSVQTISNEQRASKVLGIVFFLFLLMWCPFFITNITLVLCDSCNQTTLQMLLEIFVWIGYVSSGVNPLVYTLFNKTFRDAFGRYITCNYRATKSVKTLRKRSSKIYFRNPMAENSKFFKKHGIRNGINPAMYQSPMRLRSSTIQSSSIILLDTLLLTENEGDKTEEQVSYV
- PROTOCOL: Binding to human 5HT2B receptor expressed in CHO cells relative to 5HT
- Type: cell-based
PROPERTY_NAME: Efficacy
Answer with the number, then the unit.

Sample answers from the record:
C[C@@H](Cn1ccc2ccc3ncccc3c21)NCc1ccccc1 ... 70%
C[C@H](N)Cn1ccc2ccc3ccncc3c21 ... 67%

// below: Efficacy requested for another compound
For reference, reported Efficacy for C[C@@H](Cn1ccc2ccc3ncccc3c21)NCc1ccc2c(c1)OCO2 stands at 71%

----------
Readings of Ki for the listed compounds
- SYSTEM_TESTED: UniProtKB P28335
- Sequence (P28335 whole entry): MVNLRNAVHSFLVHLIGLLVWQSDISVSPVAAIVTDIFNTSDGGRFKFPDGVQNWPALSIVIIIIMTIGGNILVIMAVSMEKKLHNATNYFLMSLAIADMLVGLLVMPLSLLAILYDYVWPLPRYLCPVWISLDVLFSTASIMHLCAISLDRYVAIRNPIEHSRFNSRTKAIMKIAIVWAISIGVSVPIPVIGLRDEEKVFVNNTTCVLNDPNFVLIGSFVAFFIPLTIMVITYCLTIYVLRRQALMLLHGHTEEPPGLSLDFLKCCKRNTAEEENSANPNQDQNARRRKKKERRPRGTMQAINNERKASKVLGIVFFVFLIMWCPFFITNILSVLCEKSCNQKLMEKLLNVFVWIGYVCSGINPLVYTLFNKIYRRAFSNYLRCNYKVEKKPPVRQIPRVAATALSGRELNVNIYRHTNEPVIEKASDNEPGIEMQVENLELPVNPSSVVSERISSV
The reply should be a number in nM, with the unit left off.

Sample answers from the record:
COc1ccccc1CN[C@@H](C)Cn1ccc2ccc3ncccc3c21 ... 168
C[C@H](N)Cn1ccc2ccc3ncccc3c21 ... 1.6

UniProtKB P28335 Ki of C[C@@H](Cn1ccc2ccc3ncccc3c21)NCc1ccccc1Cl is 39

UniProtKB P28335 Ki of C[C@H](N)Cn1ccc2ccc3cccnc3c21 is 27

UniProtKB P28335 Ki of C[C@H](N)Cn1ccc2cc(Cl)c3ncccc3c21 is 2.4

UniProtKB P28335 Ki of C[C@H](N)Cn1ccc2ccc3ccncc3c21 is 37

UniProtKB P28335 Ki of C[C@H](N)Cn1ccc2ccc3cnccc3c21 is 72

----------
- SYSTEM_TESTED: 5-hydroxytryptamine receptor 2A (Homo sapiens)
- Sequence (P28223 whole entry): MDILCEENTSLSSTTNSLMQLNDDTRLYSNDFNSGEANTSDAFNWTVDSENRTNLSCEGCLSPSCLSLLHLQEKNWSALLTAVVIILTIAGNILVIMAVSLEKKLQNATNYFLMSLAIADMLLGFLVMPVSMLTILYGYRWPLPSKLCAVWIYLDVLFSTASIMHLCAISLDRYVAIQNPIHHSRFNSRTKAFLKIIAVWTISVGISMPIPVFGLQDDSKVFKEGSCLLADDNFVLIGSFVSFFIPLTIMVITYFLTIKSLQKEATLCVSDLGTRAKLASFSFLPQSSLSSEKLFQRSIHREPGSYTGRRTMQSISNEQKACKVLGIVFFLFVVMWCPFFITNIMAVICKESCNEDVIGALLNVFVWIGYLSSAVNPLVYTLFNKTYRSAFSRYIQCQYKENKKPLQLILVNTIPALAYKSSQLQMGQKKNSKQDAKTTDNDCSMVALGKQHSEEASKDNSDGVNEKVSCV
- PROTOCOL: Binding to human 5HT2A receptor expressed in CHO cells
PROPERTY_NAME: pEC50
Lab note: report pEC50 as minus log10 of the concentration in molar units, number only.

For reference, reported pEC50 for C[C@@H](Cn1ccc2ccc3ncccc3c21)NCc1ccc2c(c1)OCO2 stands at 6.44

For reference, reported pEC50 for C[C@H](N)Cn1ccc2ccc3ncccc3c21 stands at 7.49

For reference, reported pEC50 for C[C@H](N)Cn1ccc2ccc3cccnc3c21 stands at 6.35

For reference, reported pEC50 for C[C@H](N)Cn1ccc2ccc3ccncc3c21 stands at 6.33

For reference, reported pEC50 for C[C@@H](Cn1ccc2ccc3ncccc3c21)NCc1ccc2ccccc2c1 stands at 6.65

For reference, reported pEC50 for C=CCN[C@@H](C)Cn1ccc2ccc3ncccc3c21 stands at 6.11

For reference, reported pEC50 for C[C@H](N)Cn1ccc2cc(Cl)c3ncccc3c21 stands at 7.44

For reference, reported pEC50 for C[C@@H](Cn1ccc2ccc3ncccc3c21)NCc1ccccc1Cl stands at 6.20
